Parameter melting point: see the listing below.

// solved cases for melting point follow
>>> reported("Cc1cc(=O)c(Oc2ccc(Cl)cc2)c(-c2ccc(S(N)(=O)=O)cc2)o1")
"221 °C"
>>> reported("N=C(N)c1ccc(O)c(C(=O)c2ccccc2)c1")
"186 to 189 °C"

Lookup: Bench note: what melting point did Cc1[nH]c2ccc(C(=O)c3ccccc3)cc2c1C=O show?
Found: 227 to 230 °C

Lookup: Bench note: what melting point did CCCn1nc(C2CC2)c(C(=O)O)c1Cc1ccc(-c2ccccc2S(=O)(=O)NC(=O)c2ccccc2)cc1 show?
Found: 230 to 232 °C

Lookup: Bench note: what melting point did CC(C)(C)c1c[nH]c(S)n1 show?
Found: 232 to 234 °C

Lookup: Bench note: what melting point did NC(=O)c1ncoc1-c1cccc(O)c1 show?
Found: 202 to 204 °C

Lookup: Bench note: what melting point did COC(=S)OC(C(=O)OC(c1ccccc1)c1ccccc1)c1ccccc1 (stereo unspecified) show?
Found: 74 °C

---

Parameter melting point: see the listing below.

// solved cases for melting point follow
>>> reported("FC(F)(F)c1ccccc1-c1nnc(Nc2cccc(SCc3ccccc3-c3ccccc3)c2)s1")
"73 to 75 °C"
>>> reported("CC(C)(C)c1cc(SC2CC(=O)N(C3CCCCC3)C2=O)cc(C(C)(C)C)c1O (centres undefined)")
"94 to 98 °C"

Lookup: Bench note: what melting point did O=C(Nc1ccccc1S(=O)(=O)c1ccccc1)N[C@@H](Cc1ccc(Oc2nccc3cnccc23)cc1)C(=O)O show?
Found: 136 °C

Lookup: Bench note: what melting point did Cc1cc(-c2ccc(F)cc2)n(-c2ccc(S(N)(=O)=O)cc2)c1 show?
Found: 168 to 170 °C

---

Parameter melting point: see the listing below.

>>> reported("CC(C)n1nc(-c2cnc(N)nc2-c2cccc(Cl)c2)ccc1=O")
"236 to 237 °C"
>>> reported("Cn1cc(-c2ccncn2)ccc1=O")
"147 to 149 °C"
>>> reported("CCCCCCCCC=CCCCCCCCCCCCC(=O)NCCOC(C)=O")
"51 °C"

Lookup: Bench note: what melting point did CC(=Cc1c(Cl)cccc1Cl)[N+](=O)[O-] show?
Found: 49 to 50 °C

Lookup: Bench note: what melting point did CCC(C)N(C)C(=O)c1cc2sccc2c(-c2ccccc2)n1 (stereo not given) show?
Found: 104 °C

Lookup: Bench note: what melting point did CC#COc1ccc2c(=O)c(C)c(-c3ccccc3)oc2c1 show?
Found: 179 to 180 °C

---

Parameter melting point: see the listing below.

// solved cases for melting point follow
>>> reported("COc1ccc(-c2cc3ccc(C#N)cc3o2)cc1")
"141 to 142 °C"
>>> reported("C/C(N)=C/C(=O)OCCOC/C(C)=C/c1ccc(Cc2cccnc2)cc1")
"67 to 70 °C"
>>> reported("CC(C)(C)c1cc(-c2nn(CCOC(=O)c3cccnc3)c3ncccc23)cc(C(C)(C)C)c1O")
"134 to 136 °C"
>>> reported("Cc1c(CC=CCCC(=O)O)cccc1C(=O)c1ccc(Cl)cc1")
"73 °C"

Lookup: Bench note: what melting point did CCCCc1cn(Cc2ccc(-c3ccccc3C(=O)O)cc2)c2cc(C(=O)O)ccc2c1=O show?
Found: > 260 °C

---

Parameter melting point: see the listing below.

>>> reported("CC(C)c1c(Sc2cc(Cl)cc(Cl)c2)nc(COCCO)n1C")
"67 to 68 °C"
>>> reported("COc1cc(C=O)c2c(c1OC)OCC=C2")
"82 to 82.5 °C"
>>> reported("O=C(O)Cc1ccccc1OCCn1ccnc1")
"146 to 147 °C"

Lookup: Bench note: what melting point did CC(=O)OC1CSC(Oc2cccc(-c3cncc(F)c3)c2)C(OC(C)=O)C1OC(C)=O (stereo unspecified) show?
Found: 135 °C

Lookup: Bench note: what melting point did Oc1ccc(C2OCN3C2=CCC3CCc2ccccc2)cc1 (stereo unspecified) show?
Found: 176 °C

Lookup: Bench note: what melting point did Cc1ccc(C(=O)NC(NC(=S)Nc2ccc(F)cc2)C(F)(F)F)cc1 (stereo unspecified) show?
Found: 208 to 210 °C

---

assay_endpoint: melting point

// solved cases for melting point follow
>>> reported("CN1CCC2(CC1)NC(c1ccccc1)c1cc(Cl)ccc1N(C)C2=O (centres undefined)")
"196 °C"
>>> reported("CC(C)NC(=O)CC(CC1(C(=O)N[C@H]2CCc3ccccc3N(CC(=O)O)C2=O)CCCC1)C(=O)O (some centres undefined)")
"145 °C"
>>> reported("Cc1cc(C=CC#N)cc(Oc2c(C(C)C)c(=O)[nH]c(=O)n2Cc2ccnc(N3C(=O)c4ccccc4C3=O)c2)c1")
"229 to 231 °C"
>>> reported("CCc1cccc(C)c1CNc1cc(C(=O)O)cc2c1nc(C)n2C")
"312 to 314 °C"
>>> reported("c1ccc(CCN2CCC(CCc3cc(-c4ccccc4)nc4ccccc34)CC2)cc1")
"80 °C"
>>> reported("O=C1N(c2ccccc2)CC(CCl)C1(Cl)Cl (centres undefined)")
"133 to 134 °C"
>>> reported("Nc1cc2c(cc1Br)-c1cc(Br)c(N)cc1S2(=O)=O")
"> 355 °C"
>>> reported("Cc1cc(OCc2ccc(-c3ccccc3-c3nnn(C(c4ccccc4)(c4ccccc4)c4ccccc4)n3)cc2)c(CCl)c(C)n1")
"110 to 112 °C"
>>> reported("COc1ccc(CSc2ccc3c(c2)C=CC(C)(C)O3)cc1")
"58 to 59 °C"
>>> reported("CNC(=O)Oc1ccc2c(ccn2NCCCc2ccncc2F)c1")
"165 to 166 °C"

Lookup: Bench note: what melting point did O=C(O)CN1CC2(CCCCC2)CC1=O show?
Found: 122 to 124 °C

Lookup: Bench note: what melting point did COc1cc(OCc2ccccn2)ccc1/C=C/c1cc(/C=C/c2ccc3cc[nH]c3c2)n(C(C)O)n1 (centres undefined) show?
Found: 94 to 97 °C

Lookup: Bench note: what melting point did CCCCc1nc2c(N)nc3cc(-c4ccc(OC)cc4OC)ccc3c2n1CC(C)C show?
Found: 187 to 189 °C

Lookup: Bench note: what melting point did CON(Cc1nc2c(N)nc(C)c(C)c2n1CC(C)C)C(=O)C1CC1 show?
Found: 135 to 137 °C

Lookup: Bench note: what melting point did Cn1cnc2c(N(Cc3ccccc3)Cc3ccccc3)nc(Cl)nc21 show?
Found: 144 to 146 °C

Lookup: Bench note: what melting point did O=C1CCCC2=C1C(c1cccnc1)C1=C(CCS1)N2 (centres undefined) show?
Found: > 250 °C

Lookup: Bench note: what melting point did COC(=O)CCC(=O)c1cc2cc(OC)c(OC)cc2o1 show?
Found: 140 to 142 °C

Lookup: Bench note: what melting point did C=CCN1C(=O)C=C(NC2c3cc4c(cc3C(c3cc(OC)c(O)c(OC)c3)C3C(=O)OCC23)OCO4)C1=O (centres undefined) show?
Found: 180 to 183 °C

Lookup: Bench note: what melting point did C=CCOC(=O)OCc1ccc(C#N)cc1C(=O)O show?
Found: 81 to 83 °C

---

assay_endpoint: melting point

>>> reported("N#Cc1cccc(-c2cncc(OC3SCC(O)C(O)C3O)c2)c1 (stereo not given)")
"172 °C"
>>> reported("Cc1cc2c3c(c1)[nH]c(=O)n3CC(C)NC2 (stereo not given)")
"199 °C"
>>> reported("CC(=O)SCC(Cc1ccccc1)C(=O)Nc1cc(C(=O)O)ccc1N1CCCC1 (stereo not given)")
"217 to 222 °C"
>>> reported("CC(c1oc2ccccc2c(=O)c1-c1cccc(F)c1)n1nc(-c2cccc3c2oc2ccccc23)c2c(N)ncnc21 (stereo not given)")
"238 to 240 °C"
>>> reported("C[C@@H]1CCC[C@H](C)N1Cc1ccc2cc(NC(=O)c3ccc(-c4ccc(Cl)cc4)nc3)ccc2c1")
"229 to 230 °C"

Lookup: Bench note: what melting point did O=C1CCCCc2ccc([N+](=O)[O-])cc21 show?
Found: 88 to 89 °C

Lookup: Bench note: what melting point did COCCNC(=O)c1ccnc(-c2ccc3c(c2)C(c2ccc(Cl)cc2Cl)CC3)c1 (stereo not given) show?
Found: 154 to 155 °C

Lookup: Bench note: what melting point did O=S1(=O)c2cccc3cccc(c23)N1CCCN1CCN(c2nsc3ccccc23)CC1 show?
Found: 172 to 173 °C

Lookup: Bench note: what melting point did O=C1Cc2cc(C3=NNC(=O)C4CCC34)ccc2N1 (stereo not given) show?
Found: 309 to 312 °C

Lookup: Bench note: what melting point did Cc1ccccc1C(=O)NCN1CCN(c2cccc(C#N)c2)CC1 show?
Found: 156 to 159 °C

---

assay_endpoint: melting point

// solved cases for melting point follow
>>> reported("COc1ccccc1S(=O)(=O)OC(Cl)C(=O)c1ccccc1 (stereo not given)")
"83 °C"
>>> reported("CC(C)Oc1cc(CCCOc2cc(CCC(=O)O)n(-c3ccccc3)n2)n(Cc2ccc(Cl)cc2Cl)n1")
"146 to 148 °C"
>>> reported("O=c1ccc2c(-c3cccc([N+](=O)[O-])c3)nccc2[nH]1")
"> 300 °C"
>>> reported("CC(C)(C)COC1CCC(=O)N1C(=O)c1ccccc1 (stereo not given)")
"83 to 85 °C"
>>> reported("COc1ccc(-c2ccccc2C(SCC(=O)c2ccccc2)C(OC(C)=O)C(N)=O)cc1 (stereo not given)")
"122 to 123 °C"

// next entry
Lookup: Bench note: what melting point did CN1CCCCC1CCc1ccccc1NC(=O)c1ccc(F)cc1 (stereo not given) show?
Found: 116 °C
